# Assay Summary: Cytotoxicity against human SH-SY5Y cells after 72 hrs by MTT assay
# Type: cell-based
Quick rule for you: IC50 under 50 µM gets 1 (yes), anything else gets 0 (no).

CN(CCCN1c2ccccc2Oc2ccccc21)CCc1ccccc1 | 1 (yes)
CN(CCCN1CCc2c([nH]c3ccccc23)C1c1ccccc1)CCc1ccccc1 (stereo unspecified) | 1 (yes)

Q: Regarding CN(CCCN1CCc2c([nH]c3ccccc23)C1c1ccccc1)Cc1ccccc1 (stereo unspecified) , kindly confirm whether its IC50 is beneath 50 µM.
Ans: 1 (yes)

Q: Regarding `c1ccc2c3c([nH]c2c1)CN(CCCN1CCCC1)CC3` , kindly confirm whether its IC50 is beneath 50 µM.
Ans: 1 (yes)

Q: Regarding `CN(CCCN1CCc2c([nH]c3ccccc23)C1)CCc1ccccc1` , kindly confirm whether its IC50 is beneath 50 µM.
Ans: 1 (yes)

Q: Regarding c1ccc(C2c3[nH]c4ccccc4c3CCN2CCCN2CCCC2)cc1 (stereo unspecified) , kindly confirm whether its IC50 is beneath 50 µM.
Ans: 1 (yes)

Q: Regarding `CN(CCCN1CCc2oc3ccccc3c2C1)Cc1ccccc1` , kindly confirm whether its IC50 is beneath 50 µM.
Ans: 0 (no)

Q: Regarding `c1ccc2c(c1)CN(CCCN1c3ccccc3Oc3ccccc31)C2` , kindly confirm whether its IC50 is beneath 50 µM.
Ans: 1 (yes)

Q: Regarding `CN(CCCN1c2ccccc2Oc2ccccc21)Cc1ccccc1` , kindly confirm whether its IC50 is beneath 50 µM.
Ans: 0 (no)

Q: Regarding `c1ccc2c(c1)CN(CCCN1CCc3c([nH]c4ccccc34)C1)C2` , kindly confirm whether its IC50 is beneath 50 µM.
Ans: 1 (yes)

----------
We begin with a simple list: items and their reported pKi.
# Experimental Target: Sigma non-opioid intracellular receptor 1 (Homo sapiens, UniProt Q99720)
# Sequence (Q99720 whole entry): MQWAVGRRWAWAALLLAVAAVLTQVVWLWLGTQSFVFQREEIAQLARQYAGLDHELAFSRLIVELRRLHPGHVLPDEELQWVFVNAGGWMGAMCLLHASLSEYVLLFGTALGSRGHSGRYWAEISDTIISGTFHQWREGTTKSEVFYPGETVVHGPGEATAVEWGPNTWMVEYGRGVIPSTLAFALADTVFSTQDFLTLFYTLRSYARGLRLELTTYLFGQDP
# Assay Summary: Displacement of [3H](+)-pentazocine from human sigma 1 receptor in human Jurkat cell membranes incubated for 2 hrs by liquid scintillation counting
// pKi: -log10(molar conc.)

CN(CCCn1c(=O)oc2cc3c(cc21)C(c1ccc(Cl)cc1)CC3=O)Cc1ccccc1 (stereo unspecified) | 6.80
CN(CCCN1CCc2c([nH]c3ccccc23)C1c1ccccc1)CCc1ccccc1 (stereo unspecified) | 7.96
CN(CCCN1CCc2oc3ccccc3c2C1)Cc1ccccc1 | 8.70
c1ccc2c(c1)CN(CCCN1CCc3c([nH]c4ccccc34)C1)C2 | 8.10
c1ccc(C2c3[nH]c4ccccc4c3CCN2CCCN2CCCC2)cc1 (stereo unspecified) | 7.44
CN(CCCn1c(=O)oc2cc3c(cc21)C(c1ccccc1)CC3=O)Cc1ccccc1 (stereo unspecified) | 7.14

Note to self: pKi recorded for O=C1C2Cc3ccccc3CN2C(=O)N1CCCN1Cc2ccccc2C1 (stereo unspecified) was 8.28

Note to self: pKi recorded for `CN(CCCN1CCc2c([nH]c3ccccc23)C1)Cc1ccccc1` was 8.21

Note to self: pKi recorded for `CN(CCCN1c2ccccc2Sc2ccccc21)CCc1ccccc1` was 7.96

Just for reference, ChEMBL document CHEMBL3352141 is where these values come from.
